# Tested on: L. donovani promastigotes
# MEASUREMENT_DESCRIPTION: in vitro antileishmanial activity, alamarBlue assay
# Type: cell-based, Leishmania donovani
# CONDITION_INFO: Leishmania donovani, 48 h, read-out: L. donovani IC90, promastigotes, 48 h
ENDPOINT: IC90

MOLECULE	ENDPOINT	REPORTED_RESULT
CCCCCCOc1c(OC)cc(NC(C)CCCN)c2nc(C(C)(C)C)cc(C)c12 (stereo not shown)	IC90	2.55 µg/mL
CCCCCCCCOc1c(OC)cc(NC(C)CCCNC(=O)C(N)C(C)CC)c2nc(C(C)(C)C)ccc12 (stereo not shown)	IC90	26.9 µg/mL
CCCCCCCCOc1c(OC)cc(NC(C)CCCNC(=O)C(N)CCSC)c2nc(C(C)(C)C)ccc12 (stereo not shown)	IC90	26.4 µg/mL
CCCCCOc1c(OC)cc(NC(C)CCCNC(=O)C(N)CC(C)C)c2nc(C(C)(C)C)ccc12 (stereo not shown)	IC90	6.5 µg/mL

====

# Test system: C. neoformans ATCC90113
# MIC annotations

COMPOUND	UOM	MEASUREMENT_QUALIFIER	MIC
CCCCCCCCOc1c(OC)cc(NC(C)CCCN)c2nc(C(C)(C)C)ccc12 (centres unmarked)	µg/mL	=	5
CCCCCCCOc1c(OC)cc(NC(C)CCCNC(=O)C(N)CCCN)c2nc(C(C)(C)C)ccc12 (centres unmarked)	µg/mL	>	20
CCCCCOc1c(OC)cc(NC(C)CCCNC(=O)C(N)Cc2ccccc2)c2nc(C(C)(C)C)ccc12 (centres unmarked)	µg/mL	=	2.5
CCCCCCOc1c(OC)cc(NC(C)CCCNC(=O)C(N)CCCCN)c2nc(C(C)(C)C)ccc12 (centres unmarked)	µg/mL	>	20
CCCCCCCOc1c(OC)cc(NC(C)CCCN)c2nc(C(C)(C)C)ccc12 (centres unmarked)	µg/mL	=	2.5
CCCCCCOc1c(OC)cc(NC(C)CCCNC(=O)C(N)CCCNC(=N)N)c2nc(C(C)(C)C)ccc12 (centres unmarked)	µg/mL	>	20
CCCCCCOc1c(OC)cc(NC(C)CCCNC(=O)C(N)Cc2ccccc2)c2nc(C(C)(C)C)ccc12 (centres unmarked)	µg/mL	=	20
CCCCCOc1c(OC)cc(NC(C)CCCN)c2nc(C(C)(C)C)cc(C)c12 (centres unmarked)	µg/mL	=	20

====

# System: C. albicans ATCC90028
# MEASUREMENT_DESCRIPTION: in vitro antifungal activity
# Type: cell-based, Candida albicans
ENDPOINT: C. albicans MIC (µg/mL)

COMPOUND	ENDPOINT	MEASUREMENT_QUALIFIER	REPORTED_RESULT
CCCCCCOc1c(OC)cc(NC(C)CCCNC(=O)C2CCCN2)c2nc(C(C)(C)C)ccc12 (centres unmarked)	C. albicans MIC	=	20.00
CCCCCCCOc1c(OC)cc(NC(C)CCCN)c2nc(C(C)(C)C)ccc12 (centres unmarked)	C. albicans MIC	=	10.00
CCCCCCCCOc1c(OC)cc(NC(C)CCCNC(=O)C(N)CCCN)c2nc(C(C)(C)C)ccc12 (centres unmarked)	C. albicans MIC	>	20

====

# IC50 annotations
# System: C. albicans ATCC90028
# MEASUREMENT_DESCRIPTION: in vitro antifungal activity
# Type: cell-based, Candida albicans
# CONDITION_INFO: Candida albicans, ATCC90028, read-out: C. albicans IC50
ENDPOINT: IC50

COMPOUND	SUBJECT_OF_TEST	REPORTED_RESULT
CCCCCCCOc1c(OC)cc(NC(C)CCCNC(=O)C(N)C(C)CC)c2nc(C(C)(C)C)ccc12 (centres unmarked)	C. albicans ATCC90028	14.2 µg/mL
CCCCCCCCOc1c(OC)cc(NC(C)CCCNC(=O)C(N)C(C)CC)c2nc(C(C)(C)C)ccc12 (centres unmarked)	C. albicans ATCC90028	> 20 µg/mL
CCCCCCOc1c(OC)cc(NC(C)CCCNC(=O)C(N)Cc2cc3ccccc3[nH]2)c2nc(C(C)(C)C)ccc12 (centres unmarked)	C. albicans ATCC90028	> 20 µg/mL
COc1cc(NC(C)CCCN)c2nc(C(C)(C)C)ccc2c1Oc1ccc(Cl)c(Cl)c1 (centres unmarked)	C. albicans ATCC90028	> 20 µg/mL
CCCCCCOc1c(OC)cc(NC(C)CCCN)c2nc(C(C)(C)C)cc(C)c12 (centres unmarked)	C. albicans ATCC90028	5.91 µg/mL
CCCCCCCCOc1c(OC)cc(NC(C)CCCN)c2nc(C(C)(C)C)cc(C)c12 (centres unmarked)	C. albicans ATCC90028	> 20 µg/mL
CCCCCCOc1c(OC)cc(NC(C)CCCNC(=O)C(N)CCSC)c2nc(C(C)(C)C)ccc12 (centres unmarked)	C. albicans ATCC90028	> 20 µg/mL
CCCCCCOc1c(OC)cc(NC(C)CCCN)c2nc(C(C)(C)C)ccc12 (centres unmarked)	C. albicans ATCC90028	15.4 µg/mL
